# experimentalTarget: human EGFR L858R (NIH/3T3 cells) (Homo sapiens, UniProt P00533, L858R)
# Sequence (P00533 25-1210 L858R): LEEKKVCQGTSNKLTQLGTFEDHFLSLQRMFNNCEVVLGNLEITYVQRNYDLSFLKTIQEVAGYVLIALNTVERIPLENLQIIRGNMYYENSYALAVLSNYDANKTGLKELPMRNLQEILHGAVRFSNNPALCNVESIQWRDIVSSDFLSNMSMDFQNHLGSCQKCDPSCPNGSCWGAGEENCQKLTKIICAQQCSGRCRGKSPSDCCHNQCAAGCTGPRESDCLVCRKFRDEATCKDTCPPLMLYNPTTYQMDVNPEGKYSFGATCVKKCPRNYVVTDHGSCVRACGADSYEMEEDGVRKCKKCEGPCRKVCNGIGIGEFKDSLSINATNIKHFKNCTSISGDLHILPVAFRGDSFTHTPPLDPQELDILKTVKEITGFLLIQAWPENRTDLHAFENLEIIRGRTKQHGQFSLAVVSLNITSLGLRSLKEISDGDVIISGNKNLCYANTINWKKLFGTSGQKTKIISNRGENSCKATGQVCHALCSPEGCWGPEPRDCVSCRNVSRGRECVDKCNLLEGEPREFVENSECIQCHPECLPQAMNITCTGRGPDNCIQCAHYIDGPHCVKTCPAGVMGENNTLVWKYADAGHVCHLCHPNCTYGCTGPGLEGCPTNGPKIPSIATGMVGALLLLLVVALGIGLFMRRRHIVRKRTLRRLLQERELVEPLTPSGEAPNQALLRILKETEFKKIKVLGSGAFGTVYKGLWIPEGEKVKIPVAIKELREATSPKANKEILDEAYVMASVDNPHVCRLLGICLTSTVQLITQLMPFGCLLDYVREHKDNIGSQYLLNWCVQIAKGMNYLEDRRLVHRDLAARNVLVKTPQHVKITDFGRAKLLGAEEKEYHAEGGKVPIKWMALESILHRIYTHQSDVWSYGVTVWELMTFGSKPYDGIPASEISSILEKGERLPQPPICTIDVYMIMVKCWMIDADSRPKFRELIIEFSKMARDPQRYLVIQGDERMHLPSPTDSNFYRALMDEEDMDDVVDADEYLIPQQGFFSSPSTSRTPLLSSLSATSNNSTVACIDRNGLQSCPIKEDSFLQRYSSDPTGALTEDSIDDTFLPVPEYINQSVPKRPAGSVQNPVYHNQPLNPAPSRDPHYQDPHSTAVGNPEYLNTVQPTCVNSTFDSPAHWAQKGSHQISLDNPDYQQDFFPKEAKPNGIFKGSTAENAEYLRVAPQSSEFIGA
# testDetails: EGFR target modulation in engineered NIH/3T3 cell lines (phospho-EGFR Y1068 AlphaLISA), EGFR L858R
# Type: cell-based
# runParameters: engineered NIH/3T3 cells, read-out: NIH3T3 IC50 (μM) EGFR (L858R)
assayEndpoint: IC50 (µM)

{"molecule": "C=CC(=O)N1CCCC[C@@H](n2c(NC(=O)c3ccccc3)nc3cccc(CN(C)CCS(C)(=O)=O)c32)C1", "IC50 / µM": 0.041}

[A] C=CC(=O)N1CCCC(n2c(NC(=O)c3cccc(C(F)(F)F)c3)nc3ccncc32)C1 (stereo not shown)
[B] C=CC(=O)N1CCCC[C@@H](n2c(NC(=O)c3ccnc(C)c3)nc3cc(CN4CC[C@@H](F)C4)cc(C)c32)C1
[C] Cc1cccc2nc(NC(=O)c3ccnc(F)c3)n(C3CCCCN(C(=O)/C=C/CN(C)C)C3)c12 (stereo not shown)
[D] COc1cc(C(=O)Nc2nc3cccc(C)c3n2C2CCCCN(C(=O)/C=C/CN(C)C)C2)ccn1 (stereo not shown)
[E] Cc1cccc2nc(NC(=O)c3cccc(S(C)(=O)=O)c3)n(C3CCCCN(C(=O)/C=C/CN(C)C)C3)c12 (stereo not shown)
Ask: Arrange these molecules by their IC50, starting with the largest number. Write out the labels following the order that was asked for.
Reply: A, D, E, C, B

* * *

# experimentalTarget: HCC827 (Del E746-A750) (Homo sapiens, UniProt P00533, DEL746-750)
# Sequence (P00533 with tags, fused parts or gaps DEL746-750): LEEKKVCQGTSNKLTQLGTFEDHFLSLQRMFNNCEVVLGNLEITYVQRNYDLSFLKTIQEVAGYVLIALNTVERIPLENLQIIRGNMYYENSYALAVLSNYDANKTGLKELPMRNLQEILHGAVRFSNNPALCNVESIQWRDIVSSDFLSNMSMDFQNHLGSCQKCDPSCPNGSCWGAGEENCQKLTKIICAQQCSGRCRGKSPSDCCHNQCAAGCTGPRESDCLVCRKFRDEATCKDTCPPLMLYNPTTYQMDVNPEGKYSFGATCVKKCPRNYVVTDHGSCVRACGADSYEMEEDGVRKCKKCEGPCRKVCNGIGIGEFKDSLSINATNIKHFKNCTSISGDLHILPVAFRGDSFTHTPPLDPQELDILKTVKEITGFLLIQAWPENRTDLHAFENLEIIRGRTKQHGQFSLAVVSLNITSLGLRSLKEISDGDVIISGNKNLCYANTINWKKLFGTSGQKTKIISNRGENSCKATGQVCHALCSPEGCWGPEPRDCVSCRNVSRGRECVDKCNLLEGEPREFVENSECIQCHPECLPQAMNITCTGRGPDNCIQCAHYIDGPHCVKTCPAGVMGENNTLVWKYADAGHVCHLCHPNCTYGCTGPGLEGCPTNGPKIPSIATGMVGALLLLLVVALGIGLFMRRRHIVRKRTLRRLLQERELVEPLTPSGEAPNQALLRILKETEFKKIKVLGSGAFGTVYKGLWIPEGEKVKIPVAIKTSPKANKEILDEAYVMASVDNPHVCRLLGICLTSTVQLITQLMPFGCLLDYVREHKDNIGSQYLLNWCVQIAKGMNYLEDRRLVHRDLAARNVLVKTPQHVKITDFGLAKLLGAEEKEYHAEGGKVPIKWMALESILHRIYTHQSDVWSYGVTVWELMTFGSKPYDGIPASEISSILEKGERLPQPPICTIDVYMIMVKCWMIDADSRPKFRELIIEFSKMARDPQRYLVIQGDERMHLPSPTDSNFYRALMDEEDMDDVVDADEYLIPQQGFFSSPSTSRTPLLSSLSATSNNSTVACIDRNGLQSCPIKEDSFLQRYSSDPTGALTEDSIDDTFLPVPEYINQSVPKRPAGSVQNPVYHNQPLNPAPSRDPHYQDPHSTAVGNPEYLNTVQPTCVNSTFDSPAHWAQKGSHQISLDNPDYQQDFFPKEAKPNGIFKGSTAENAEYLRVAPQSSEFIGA
# testDetails: EGFR target modulation in HCC827 cell line (phospho-EGFR Y1173 ELISA)
assayEndpoint: IC50 (nM)

Consider the reported IC50 for these compounds:
{"smilesInput": "CNC/C=C/C(=O)N1CCCC[C@@H](n2c(NC(=O)c3ccnc(C)c3)nc3cccc(Cl)c32)C1", "IC50 [nM]": 1}
{"smilesInput": "Cc1cc(C(=O)Nc2nc3cccc(Cl)c3n2[C@@H]2CCCCN(C(=O)/C=C/C(C)(C)N(C)C)C2)ccn1", "IC50 [nM]": 480}
{"smilesInput": "C=CC(=O)N1CCC[C@@H](n2c(NC(=O)c3cccc(C(F)(F)F)c3)nc3cc(COCC)ccc32)C1", "IC50 [nM]": 291}

[a] Cc1cc(C(=O)Nc2nc3cccc(C(F)(F)F)c3n2[C@@H]2CCCCN(C(=O)/C=C/CN(C)C)C2)ccn1
[b] C=CC(=O)N1CCCC[C@@H](n2c(NC(=O)c3ccnc(C)c3)nc3ccc(OCCN4CCCC4)c(Cl)c32)C1
Ask: Please let me know which one, a or b , has a lower measured IC50 value. Bench note: the answer is the label of the chosen record.
Reply: b

* * *

# experimentalTarget: EGFR(L858R/T790M) (Homo sapiens, UniProt P00533, L858R/T790M)
# Construct: purchased from Carna (GST-a.a. 669-1210)
# Sequence (P00533 669-1210 T790M/L858R): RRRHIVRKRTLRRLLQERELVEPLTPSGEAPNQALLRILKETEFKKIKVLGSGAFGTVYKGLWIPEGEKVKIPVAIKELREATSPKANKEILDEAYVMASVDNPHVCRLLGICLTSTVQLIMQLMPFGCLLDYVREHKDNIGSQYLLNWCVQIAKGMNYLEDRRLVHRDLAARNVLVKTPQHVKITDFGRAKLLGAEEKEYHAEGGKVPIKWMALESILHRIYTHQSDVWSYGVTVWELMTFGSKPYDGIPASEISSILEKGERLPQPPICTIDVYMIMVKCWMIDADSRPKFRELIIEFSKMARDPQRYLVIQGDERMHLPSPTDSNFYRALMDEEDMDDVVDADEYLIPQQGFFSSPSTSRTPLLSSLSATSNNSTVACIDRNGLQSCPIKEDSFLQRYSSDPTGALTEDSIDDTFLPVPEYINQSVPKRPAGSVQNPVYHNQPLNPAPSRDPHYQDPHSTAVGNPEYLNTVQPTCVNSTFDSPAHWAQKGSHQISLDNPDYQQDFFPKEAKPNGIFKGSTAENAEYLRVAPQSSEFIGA
# testDetails: EGFR biochemical assay (HTRF), IC50 determinations
# runParameters: EGFR (L858R/T790M) with 90 min pre-incubation; read-out: IC50 (μM) Column B
assayEndpoint: IC50 (µM)

{"compound": "C=CC(=O)N1CCOCC(n2c(NC(=O)c3ccccc3)nc3cccc(-c4nc(C)no4)c32)C1 (stereo not shown) [Example 17-141]", "IC50 / µM": 0.01}
{"compound": "C/C=C/C(=O)N1CCCC[C@@H](n2c(NC(=O)c3ccnc(C)c3)nc3ccc(OCCN4CCCC4)c(Cl)c32)C1 [Example 17-194]", "IC50 / µM": 0.006}
{"compound": "C=CC(=O)N1CCCC(n2c(NC(=O)c3cccc(C(F)(F)F)c3)nc3c2CN(C(=O)OC)CC3)C1 (stereo not shown) [Example 17-170]", "IC50 / µM": 0.006}
{"compound": "C=CC(=O)N1CCC[C@@H](n2c(NC(=O)c3cccc(C(F)(F)F)c3)nc3cc(CN4CCOCC4)ccc32)C1 [Example 17-112]", "IC50 / µM": 0.003}
{"compound": "Cc1cccc2nc(NC(=O)c3cccc(C(F)(F)F)c3)n([C@H]3COCCN(C(=O)/C=C/CN(C)C)C3)c12 [Example 17-6]", "IC50 / µM": 0.01}
{"compound": "C=CC(=O)N1CCCCC(n2c(NC(=O)c3ccccc3)nc3cccc(C(=O)NCC(=O)O)c32)C1 (stereo not shown) [Example 17-137]", "IC50 / µM": 0.044}
{"compound": "Cc1cccc2nc(NC(=O)c3ncccn3)n(C3CCCCN(C(=O)/C=C/CN(C)C)C3)c12 (stereo not shown) [Example 17-36]", "IC50 / µM": 0.35}
{"compound": "C/C=C/C(=O)N1CC(n2c(NC(=O)c3cccc(C(F)(F)F)c3)nc3cc(C)ccc32)C1 [Example 17-101]", "IC50 / µM": 0.193}
{"compound": "C=CC(=O)N1CCCC[C@@H](n2c(NC(=O)c3ccnnc3)nc3cccc(OC)c32)C1 [Example 17-84]", "IC50 / µM": 0.003}
{"compound": "C=CC(=O)N1CCC[C@@H](n2c(NC(=O)c3ccccc3)nc3cccc(C)c32)C1 [Example 17-108]", "IC50 / µM": 0.005}

[a] C=CC(=O)N1CCC[C@@H](n2c(NC(=O)c3cccc(C(F)(F)F)c3)nc3cc(C)ccc32)C1 [17-105, 21-6]
[b] C=CC(=O)N1CCCC(n2c(NC(=O)c3cccc(C(F)(F)F)c3)nc3c2CN(C(C)=O)CC3)C1 (stereo not shown) [Example 17-172]
Ask: // pick min by IC50: a , b Lab note: record the label of whichever item you select.
Reply: a
(a: 0.002 µM, b: 0.268 µM)

[P] C=CC(=O)N1CCC[C@@H](n2c(NC(=O)c3cccc(C(F)(F)F)c3)nc3cccc(C)c32)C1 [Example 17-106]
[Q] Cc1cc(C(=O)Nc2nc3cccc(Cl)c3n2C2CCCCN(C(=O)/C=C/CN(C)C)C2)cc(P(C)(C)=O)n1 (single isomer, unassigned) [Example 21-9A]
Ask: Pick one, P or Q : lowest reported IC50. Could you answer with the label of the item you picked?
Reply: P

Where these numbers come from: patent US9440957B2
